meta.source: patent US9920088B2

Documented CC50 at 48 h across a set of molecules
- Experiment: in vitro
- Measurement parameters: human
Assay metric: CC50 at 48 h

Molecule: CC1(C)CC[C@]2(C(=O)O[C@H]3OC(CO)[C@@H](O)C(O)C3O)C(O)C[C@]3(C)C(=CC[C@@H]4[C@@]5(C)CC[C@H](O)C(C)(C)[C@@H]5CC[C@]43C)[C@@H]2C1 (stereo partly drawn)
Assay metric: CC50 at 48 h
Test result: > 100 µM

Molecule: CCOC(=O)C1=C[C@@H](OC(CC)CC)[C@H](NC(C)=O)[C@@H](N)C1 [OSV-P, oseltamivir phosphate, reference compound]
Assay metric: CC50 at 48 h
Test result: > 100 µM

Molecule: CC(=O)OCC1O[C@H](O[C@H]2C(COC(C)=O)O[C@H](OC(=O)[C@]34CCC(C)(C)C[C@H]3C3=CC[C@@H]5[C@@]6(C)CC[C@H](O)C(C)(C)[C@@H]6CC[C@@]5(C)[C@]3(C)CC4O)C(OC(C)=O)C2OC(C)=O)C(OC(C)=O)C(OC(C)=O)[C@@H]1OC(C)=O (stereo partly drawn)
Assay metric: CC50 at 48 h
Test result: > 100 µM
